B1: Protein piccolo, residues 1058 to 1114; numbered along this chain, Q9Y6V0 (parent)
chain: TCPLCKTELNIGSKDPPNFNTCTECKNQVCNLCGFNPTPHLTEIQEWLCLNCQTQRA

Variants of: B1
Run description: abundance fitness (aPCA) (normalised: wild type 0, dead -1); higher = more abundant; growth selection in yeast, the domain comes from the species named
Protocol conditions: Homo sapiens
# abundance fitness listing for each entry below
I'd appreciate a reply containing only the number, no unit.

{"columns": ["Residue sequence", "abundance fitness"],
 "data": [
  ["TCPLCKTELNIGSKDPPNFNTCTECKNQVCNLCGFNPTPHLTRIQEWLCLNCQTQRA [E43R]", 0.11],
  ["TCPLCKTELNIGSKDPPNFNTCTECKNQVCNLYGFNPTPHLTEIQEWLCLNCQTQRA [C33Y]", -1.26],
  ["TCPLCKTELNIGSKDPPNFNLCTECKNQVCNLCGFNPTPHLTEIQEWLCLNCQTQRA [T21L]", -0.098]
]}

Prompt line: Given the variant TCPLCKTELNIGSKDPPNFNTCTECKNQVCNLCGFNPTPHLTEIQEWLCLICQTQRA [N51I] , what is its reported abundance fitness?
Response line: -0.566

Prompt line: Given the variant TCPLCKTECNIGSKDPPNFNTCTECKNQVCNLCGFNPTPHLTEIQEWLCLNCQTQRA [L9C] , what is its reported abundance fitness?
Response line: -0.201

Origin of measurements: the Human Domainome abundance scans (Beltran et al. 2025)
